# system: SARS-CoV-2 Mac1 (Severe acute respiratory syndrome coronavirus 2)
# assaySummary: biochemical
# measurementSetup: read-out: %inhibition
Where a name gives a salt, the structure may show the parent alone.
Measured inhibition at 100 µM of individual entries
# unit: % | format: bare number

Observe how each entry below is paired with its result.
molecule="CS(=O)(=O)c1ccc([C@@H](O)[C@@H](CF)NC(=O)C(Cl)Cl)cc1 [Florfenicol]" experimentalresult=30.4
molecule="C[C@@H]1O[C@@H](OC[C@H]2O[C@@H](Oc3c(-c4ccc(OCCO)c(OCCO)c4)oc4cc(OCCO)cc(O)c4c3=O)[C@H](O)[C@@H](O)[C@@H]2O)[C@H](O)[C@H](O)[C@H]1O [Troxerutin]" experimentalresult=0
molecule="C[C@H](CCC(=O)O)[C@H]1CC[C@H]2[C@@H]3[C@H](O)C[C@@H]4C[C@H](O)CC[C@]4(C)[C@H]3C[C@H](O)[C@]12C [Cholic acid]" experimentalresult=0
molecule="CCOC(=O)c1ccc(N)cc1 [Benzocaine hydrochloride]" experimentalresult=0
molecule="CN1CCOC(c2ccccc2)c2ccccc2C1 (stereo not shown) [Nefopam HCl]" experimentalresult=0
molecule="CCOc1cc2ncc(C#N)c(Nc3ccc(F)c(Cl)c3)c2cc1NC(=O)/C=C/CN(C)C [Pelitinib (EKB-569)]" experimentalresult=0

Turning to the following molecule.
Entry CC(C)(C)NCC(O)COc1cccc2c1C[C@H](O)[C@H](O)C2 (mixture of isomers) [Nadolol] — recorded inhibition at 100 µM = 21.5

###

Each item that follows carries a reported %inhibition.
# system: SARS-CoV-2 Mac1 (Severe acute respiratory syndrome coronavirus 2)
# assaySummary: biochemical
# measurementSetup: 100 µM; inhibitor
Counter-ions that a name gives are not always drawn.

Measured %inhibition of CCCN[C@H]1CCc2nc(N)sc2C1 [Pramipexole] : 0%

The reported %inhibition of the compound C[C@@H](O)[C@H]1C(=O)N2C(C(=O)O)=C(S[C@@H]3CN[C@H](CNS(N)(=O)=O)C3)[C@H](C)[C@H]12 [Doripenem] was 1.128%

According to the records, this compound CN(C/C=C/C#CC(C)(C)C)Cc1cccc2ccccc12 [Terbinafine HCl] displays %inhibition of 13.33%

The compound listed as CC(C(=O)O)c1cccc(Oc2ccccc2)c1 (stereo not shown) [Fenoprofen Calcium] shows %inhibition equal to 9.442%

%inhibition recorded for this compound, C[C@@H](CN1CC(=O)NC(=O)C1)N1CC(=O)NC(=O)C1 [Dexrazoxane HCl (ICRF-187, ADR-529)] , is 32.25%

Query COCCCN1CCC(NC(=O)c2cc(Cl)c(N)c3c2OCC3)CC1 [Prucalopride] yields %inhibition of 8.754%

Field %inhibition (entry CCOc1ccc(Cc2cc([C@@H]3O[C@H](CO)[C@@H](O)[C@H](O)[C@H]3O)ccc2Cl)cc1 [Dapagliflozin] ) reads 1.439%

Documented %inhibition of Cc1cc(NS(=O)(=O)c2ccc(N)cc2)no1 [Sulfamethoxazole sodium] : 0%

Lab book: %inhibition of NC(=NCCCCCCN=C(N)/N=C(\N)Nc1ccc(Cl)cc1)/N=C(\N)Nc1ccc(Cl)cc1 [Chlorhexidine?2HCl] noted as 7.76%

Query Cc1cccc([C@H](C)c2c[nH]cn2)c1C [Dexmedetomidine] yields %inhibition of 18.38%

# %inhibition (compound: N=C(N)NCCN1CCCCCCC1 [Guanethidine Monosulfate] ) is 5.593%

###

# system: SARS-CoV-2 Mac1 (Severe acute respiratory syndrome coronavirus 2, UniProt P0DTD1)
# assaySummary: biochemical
# measurementSetup: read-out: %inhibition
Structures can show the parent of a compound that is named as a salt.
Decision: inhibition at 100 µM compared against 0.08%; not below it gives Condition met, below it gives Condition not met.

Illustrative cases are given below, each with its answer.
molecule=OC(c1ccccc1)(c1ccccc1)C1CCNCC1 system="SARS-CoV-2 Mac1 (Severe acute respiratory syndrome coronavirus 2, UniProt P0DTD1)" classlabel="Condition not met"
molecule="CCCCC(O)c1ccccc1 (stereo not drawn)" system="SARS-CoV-2 Mac1 (Severe acute respiratory syndrome coronavirus 2, UniProt P0DTD1)" classlabel="Condition met"
molecule="CC(=O)OCC(=O)[C@@]1(O)CC[C@H]2[C@@H]3CCC4=CC(=O)CC[C@]4(C)[C@H]3C(=O)C[C@@]21C [Cortisone acetate]" system="SARS-CoV-2 Mac1 (Severe acute respiratory syndrome coronavirus 2, UniProt P0DTD1)" classlabel="Condition met"
molecule=O=C1/C(=C2\Nc3ccc(S(=O)(=O)O)cc3C2=O)Nc2ccc(S(=O)(=O)O)cc21 system="SARS-CoV-2 Mac1 (Severe acute respiratory syndrome coronavirus 2, UniProt P0DTD1)" classlabel="Condition met"

hey, is inhibition at 100 µM for this one >= 0.08%? CCCN(CCC)CCc1cccc2c1CC(=O)N2 [Ropinirole HCl]
Condition not met

###

As shown below, each of these compounds has a reported inhibition at 100 µM value.
# system: SARS-CoV-2 Mac1 (Severe acute respiratory syndrome coronavirus 2, UniProt P0DTD1)
# assaySummary: biochemical
# measurementSetup: read-out: %inhibition
Where a name gives a salt, the structure may show the parent alone.
Respond numerically; units are % and should not be typed.

Before answering, review these 3 worked examples.
compound="COc1cc(/C=C/C(=O)N2CCN(CC(=O)N3CCCC3)CC2)cc(OC)c1OC [Cinepazide maleate]" measurename="inhibition at 100 µM" experimentalresult=24.7
compound="CC1=C(CC(=O)O)c2cc(F)ccc2/C1=C\\c1ccc([S+](C)[O-])cc1 (centres unmarked)" measurename="inhibition at 100 µM" experimentalresult=4.16
compound="CC(C)OC(=O)C(C(=O)OC(C)C)=C1SC=CS1 [Malotilate]" measurename="inhibition at 100 µM" experimentalresult=0.00863

Short answer for CCC(=O)c1c(O)cc(O)cc1O : inhibition at 100 µM was 7.24

The compound identified as CCC1(c2ccc(N)cc2)CCC(=O)NC1=O (centres unmarked) [Aminoglutethimide] registered its inhibition at 100 µM at 17.3

###

# system: SARS-CoV-2 Mac1 (Severe acute respiratory syndrome coronavirus 2, UniProt P0DTD1)
# assaySummary: biochemical
# measurementSetup: read-out: %inhibition
Where a name gives a salt, the structure may show the parent alone.
measureName: inhibition at 100 µM
Number plus unit, in that order.

compound="O=C(O)CSCC(=O)NC1CCSC1=O (stereo not shown) [Erdosteine]" measurename="inhibition at 100 µM" experimentalresult=12.3%
compound="CO/N=C(\\C(=O)N[C@@H]1C(=O)N2C(C(=O)O)=C(Cn3ccc(=N)n3CCO)CS[C@H]12)c1csc(N)n1 [Cefoselis Sulfate]" measurename="inhibition at 100 µM" experimentalresult=22.8%
compound="CNC(=C[N+](=O)[O-])NCCSCc1ccc(CN(C)C)o1 [Ranitidine Hydrochloride]" measurename="inhibition at 100 µM" experimentalresult=10.7%
compound="CC(=O)O[C@H]1C(=O)[C@@]2(C)[C@H]([C@H](OC(=O)c3ccccc3)[C@]3(O)C[C@H](OC(=O)[C@H](O)[C@@H](NC(=O)c4ccccc4)c4ccccc4)C(C)=C1C3(C)C)[C@]1(OC(C)=O)CO[C@@H]1C[C@@H]2O [Paclitaxel]" measurename="inhibition at 100 µM" experimentalresult=6.04%
compound="CC(=O)O[C@]1(C(C)=O)CC[C@H]2[C@@H]3C=C(Cl)C4=CC(=O)CC[C@]4(C)[C@H]3CC[C@@]21C [Chlormadinone acetate]" measurename="inhibition at 100 µM" experimentalresult=0%

// inhibition at 100 µM value for CCCc1nn(C)c2c(=O)[nH]c(-c3cc(S(=O)(=O)N4CCN(C)CC4)ccc3OCC)nc12 [Sildenafil Citrate] : 0%

Reported inhibition at 100 µM for C[N+]1(C)CCC(=C(c2ccccc2)c2ccccc2)CC1 [Diphemanil Methylsulfate] was 0%

###

# system: SARS-CoV-2 Mac1 (Severe acute respiratory syndrome coronavirus 2, UniProt P0DTD1)
# assaySummary: biochemical
# measurementSetup: 100 µM; inhibitor
measureName: %inhibition

compound="CCCC(CCC)C(=O)O [Divalproex Sodium]" experimentalresult=5.124%

%inhibition reported for this compound Cc1nnc(C(=O)NC(C)(C)c2nc(C(=O)NCc3ccc(F)cc3)c(O)c(=O)n2C)o1 [Raltegravir (MK-0518)] : 3.868%

# compound COc1ccccc1OCC(O)CN1CCN(CC(=O)Nc2c(C)cccc2C)CC1 (stereo not shown) [Ranolazine 2HCl] ; its %inhibition = 0%

Lab book: %inhibition of COc1ccc(C[C@@H](C)NC[C@H](O)c2ccc(O)c(NC=O)c2)cc1 (racemic) [Formoterol Hemifumarate] noted as 0%

###

# system: SARS-CoV-2 Mac1 (Severe acute respiratory syndrome coronavirus 2)
# assaySummary: biochemical
# measurementSetup: read-out: %inhibition
Structures can show the parent of a compound that is named as a salt.
Quick rule: inhibition at 100 µM of at least 8% means Met, below that means Not met.

compound="C[C@]12CC[C@@H]3c4ccc(O)cc4CC[C@H]3[C@@H]1C[C@@H](O)[C@@H]2O [Estriol]" classlabel="Not met"
compound="CCc1nn(CCCN2CCN(c3cccc(Cl)c3)CC2)c(=O)n1CCOc1ccccc1 [Nefazodone hydrochloride]" classlabel=Met
compound="CCCc1nc2c(C)cc(-c3nc4ccccc4n3C)cc2n1Cc1ccc(-c2ccccc2C(=O)O)cc1 [Telmisartan]" classlabel=Met
compound="Cc1ccc(C(C)C)c(O)c1 [Thymol]" classlabel="Not met"
compound="C[C@H]1CN(C[C@H](Cc2ccccc2)C(=O)NCC(=O)O)CC[C@@]1(C)c1cccc(O)c1 [Alvimopan dihydrate]" classlabel=Met
compound="CC1=CC(=O)c2ccccc2C1=O [Menadione]" classlabel="Not met"

// switching to the query compound
Item Cc1ccc(N(CC2=NCCN2)c2cccc(O)c2)cc1 [Phentolamine Mesylate] with inhibition at 100 µM of 8% or above?
Not met
